Tested on: U937 cells
MEASUREMENT_DESCRIPTION: U937 cell activity assay: TNFα/QVD-OPh-induced programmed cell necrosis (necroptosis)
Type: cell-based, human
CONDITION_LABEL: Homo sapiens, U-937, 24 h, QVD-OPh 25 μM + TNF-α 100 ng/mL, CellTiter Glo
Description: 1.2 Instrument and Materials Envision plate reader (Perkin Elmer, Cat #2104-0010) 1.3 Formulation of Reagents • (1) 1×DPSB: To 100 mL of 10×DPBS was added 900 mL of deionized water. • (2) 1640 complete medium: To 89 mL of RPMI-1640 medium were added 10 mL of FBS and 1 mL of penicillin/streptomycin 2. Assay Steps • 1. […] The cells were resuspended in 1640 complete medium and counted. […] The plate was incubated at room temperature in the dark for 10 minutes, and then read using an Envision plate reader.
pIC50: −log10 of the molar value.
OBSERVABLE: pIC50

SMILES_REPRESENTATION	OBSERVABLE	MEAS_VALUE
CN1C(=S)[C@@H](NC(=O)c2ncn(Cc3ccccc3)n2)COc2cc(Br)cnc21	pIC50	7.54
COc1ccc(Cn2cnc(C(=O)N[C@H]3COc4cccnc4N(C)C3=S)n2)cc1	pIC50	7.81
CN1C(=S)[C@@H](NC(=O)c2cn(Cc3ccccc3)cn2)COc2cccnc21	pIC50	8.05
CN1C(=S)[C@@H](NC(=O)c2nnc(Cc3ccccc3)o2)COc2cccnc21	pIC50	7.92
CN1C(=S)[C@@H](NC(=O)c2ncn(Cc3cccc(C#N)c3)n2)COc2cccnc21	pIC50	8.24
Cc1ccccc1Cn1cnc(C(=O)N[C@H]2COc3cccnc3N(C)C2=S)n1	pIC50	8.31
Cc1ccc(Cn2cnc(C(=O)N[C@H]3COc4cccnc4N(C)C3=S)n2)cc1	pIC50	8.47
